Target: Quinolone resistance protein NorA (Staphylococcus aureus, UniProt P0A0J7, A116E)
Test: Inhibition of NorA in Staphylococcus aureus SA1199B harboring GrlA A116E mutant assessed as inhibition of ethidium bromide efflux after 5 mins by fluorometric method
Provide the recorded pIC50 for the entries that follow.
pIC50 here: minus log base 10 of the concentration, concentration in moles per litre.

// lookup pIC50 for COC(=O)C1=C(C)NC(C)=C(C(=O)OCCN(C)Cc2ccccc2)C1c1cccc([N+](=O)[O-])c1 (stereo not drawn) 4.64

// lookup pIC50 for COc1cc2ncnc(Nc3ccc(F)c(Cl)c3)c2cc1OCCCN1CCOCC1 5.01

// lookup pIC50 for Cc1nc(Nc2ncc(C(=O)Nc3c(C)cccc3Cl)s2)cc(N2CCN(CCO)CC2)n1 4.94

====

Biological target: Quinolone resistance protein NorA (Staphylococcus aureus)
Test: Inhibition of NorA in Staphylococcus aureus SA1199B harboring GrlA A116E mutant assessed as inhibition of ethidium bromide efflux at 50 uM measured after 5 mins by fluorometric method relative to control
observation_type: inhibition (%)
# number only, unit % dropped from output

// lookup inhibition for COc1cc2ncnc(Nc3ccc(F)c(Cl)c3)c2cc1OCCCN1CCOCC1 94.2

// lookup inhibition for Cc1nc(Nc2ncc(C(=O)Nc3c(C)cccc3Cl)s2)cc(N2CCN(CCO)CC2)n1 95.8

// lookup inhibition for CCN(CCCCOC(=O)c1ccc(OC)c(OC)c1)C(C)Cc1ccc(OC)cc1 (configuration not stated) 45.2

// lookup inhibition for Cc1ccc(-n2nc(C(C)(C)C)cc2NC(=O)Nc2ccc(OCCN3CCOCC3)c3ccccc23)cc1 47

// lookup inhibition for COC(=O)C1=C(C)NC(C)=C(C(=O)OCCN(C)Cc2ccccc2)C1c1cccc([N+](=O)[O-])c1 (configuration not stated) 77.1

// lookup inhibition for CCOC(=O)Nc1ccc2c(c1)N(C(=O)CCN1CCOCC1)c1ccccc1S2 23.7

// lookup inhibition for CCCc1nn(C)c2c(=O)[nH]c(-c3cc(S(=O)(=O)N4CCN(C)CC4)ccc3OCC)nc12 22.9
